test_system: HLA-A*0201 (human)
method: competition with 125I probe peptide, purified HLA
setup_conditions: remark: other sources report otherwise
measurement_label: IC50 (nM)
Answers are plain numbers, in nM.

Briefly, IC50 measured for YLQLVFGIEV [MAGE2.157 10-mer …] : 50
